These measurements were taken from ChEMBL document CHEMBL1697781.

Tested on: Hepatotoxicity
Assay: FDA HLAED, lactate dehydrogenase (LDH) increase
Conditions: human
Measurement label: LDH Increase - Activity Score

INSERT INTO assay_data (molecule, measurement_label, measured_value) VALUES
  ('COc1ccc(CC2c3cc(OC)c(OC)cc3CC[N+]2(C)CCC(=O)OCCCCCOC(=O)CC[N+]2(C)CCc3cc(OC)c(OC)cc3C2Cc2ccc(OC)c(OC)c2)cc1OC (centres undefined)', 'LDH Increase - Activity Score', 'Inactive'),
  ('COc1c(C)c2c(c(O)c1C/C=C(\C)CCC(=O)O)C(=O)OC2 [MYCOPHENOLIC ACID]', 'LDH Increase - Activity Score', 'Inactive'),
  ('Nc1c2c(nc3ccccc13)CCCC2 [TACRINE]', 'LDH Increase - Activity Score', 'Active'),
  ('COc1ccc2[nH]c([S+]([O-])Cc3ncc(C)c(OC)c3C)nc2c1 (centres undefined) [OMEPRAZOLE]', 'LDH Increase - Activity Score', 'Inactive'),
  ('CC(C(=O)O)c1ccc(-c2ccccc2)c(F)c1 (centres undefined) [FLURBIPROFEN]', 'LDH Increase - Activity Score', 'Inactive');

With those in mind, consider the next molecule.
Using known records, supply LDH Increase - Activity Score for CC[C@H]1OC(=O)[C@H](C)[C@@H](O[C@H]2C[C@@](C)(OC)[C@@H](O)[C@H](C)O2)[C@H](C)[C@@H](O[C@@H]2O[C@H](C)C[C@H](N(C)C)[C@H]2O)[C@](C)(O)C[C@@H](C)[C@@H]2N[C@@H](COCCOC)O[C@H]([C@H]2C)[C@]1(C)O [DIRITHROMYCIN] Inactive

---

Test system: Hepatotoxicity
Test: FDA HLAED, serum glutamic pyruvic transaminase (SGPT) increase
Settings: human
Measurement label: SGPT Increase - Number of Reports

INSERT INTO measurements (molecule, measured_value) VALUES
  ('NC1=NC(=O)C(c2ccccc2)O1 (stereo unspecified) [PEMOLINE]', '>= 4'),
  ('Clc1ccccc1CN1CCc2sccc2C1 [TICLOPIDINE]', '< 4'),
  ('O=C1CC[C@@]2(O)[C@H]3Cc4ccc(O)c5c4[C@@]2(CCN3CC2CC2)[C@H]1O5 [NALTREXONE]', '< 4'),
  ('CC(=O)O[C@@]12CO[C@@H]1C[C@H](O)[C@@]1(C)C(=O)[C@H](O)C3=C(C)[C@@H](OC(=O)[C@H](O)[C@@H](NC(=O)OC(C)(C)C)c4ccccc4)C[C@@](O)([C@@H](OC(=O)c4ccccc4)[C@H]21)C3(C)C.O.O.O [DOCETAXEL]', '< 4'),
  ('COc1ccc(CC2c3cc(OC)c(OC)cc3CC[N+]2(C)CCC(=O)OCCCCCOC(=O)CC[N+]2(C)CCc3cc(OC)c(OC)cc3C2Cc2ccc(OC)c(OC)c2)cc1OC (stereo unspecified)', '< 4'),
  ('CCCCCCCCCC(=O)CC(=O)O[C@H]1CC[C@H]2[C@@H]3CCC4=CC(=O)CC[C@]4(C)[C@H]3CC[C@]12C [TESTOSTERONE KETOLAURATE]', '< 4'),
  ('Nc1ccn([C@@H]2CS[C@H](CO)O2)c(=O)n1 [LAMIVUDINE]', '>= 4'),
  ('CC(=O)CC(c1ccccc1)c1c(O)c2ccccc2oc1=O (stereo unspecified) [WARFARIN]', '>= 4'),
  ('Sc1ncnc2nc[nH]c12 [MERCAPTOPURINE ANHYDROUS]', '>= 4'),
  ('Nc1nc(Cl)nc2c1ncn2[C@H]1C[C@H](O)[C@@H](CO)O1 [CLADRIBINE]', '< 4');

With those in mind, consider the next molecule.
// output SGPT Increase - Number of Reports; input Nc1nc2c(ncn2COCCO)c(=O)[nH]1 [ACYCLOVIR] ; system Hepatotoxicity < 4
